assaySystem: CT-L activity of purified 20S proteasome (Homo sapiens, UniProt P20618+P28074)
methodSummary: in vitro CT-L activity of purified 20S proteasome
Type: biochemical
measurementContext: read-out: IC50, in vitro CT-L
propertyName: pIC50
Answer as the number alone; pIC50 is minus log10 of concentration in mol/L.

> print(dat)
                                   compound  reported
1  CCCCc1ccc(OCC(=O)N(Cc2nc(-c3cccnc3)no2)C(C)C)cc1 [11ae]      7.41

Ask: Give the measured pIC50 of CC(C)N(Cc1nc(-c2ccccc2)no1)C(=O)COc1ccc(C(=O)O)cc1 [11t] .
Result: 4.57

Ask: Give the measured pIC50 of CCCc1ccc(OCC(=O)N(Cc2nc(-c3ncccn3)no2)C(C)C)cc1 [11ao] .
Result: 5.90

Ask: Give the measured pIC50 of CC(C)N(Cc1nc(-c2ccc(C(F)(F)F)cc2)no1)C(=O)COc1ccccc1 [11l] .
Result: 4.82

Ask: Give the measured pIC50 of CC(C)N(Cc1nc(-c2ccc(C(F)(F)F)cc2)no1)C(=O)COc1ccc(C(F)(F)F)cc1 [11c] .
Result: 5.60
